system: HepG2 cells; conditions: HepG2 glo, time point 16
property-measured: hepg2_glo_wauc_16
Give bare numbers.

| compound | endpoint-result |
| --- | --- |
| CN(C)c1ccc(C(=C2C=CC(=[N+](C)C)C=C2)c2ccccc2)cc1.CN(C)c1ccc(C(=C2C=CC(=[N+](C)C)C=C2)c2ccccc2)cc1.O=C(O)C(=O)O.O=C([O-])C(=O)O.O=C([O-])C(=O)O [Malachite green oxalate] | 1.892 |
| O=C(O)c1ccccc1O.Oc1cccc2cccnc12 [8-Quinolinol Salicylic acid (1:1)] | 0 |
| O=S1(=O)OC(c2ccc(O)cc2)(c2ccc(O)cc2)c2ccccc21 [Phenol red] | 0 |
| Cc1cc(N)c2cc(NC(=O)Nc3ccc4nc(C)cc(N)c4c3)ccc2n1.Cl.Cl [Aminoquinuride dihydrochloride] | 0 |

Proceed to the following item.
Please supply the value of reported hepg2_glo_wauc_16 for the item CC(C)=CCC/C(C)=C/CO [Geraniol]
0

Where do these numbers come from? They come from paper PMC5439695.
